procedureText: Competitive inhibition of N-terminally fluorescein-labeled human BCL9 (350 to 375 residues) interaction with beta-catenin E155A mutant (138 to 686 residues) (unknown origin) expressed in Escherichia coli BL21 DE3 after 3 hrs by fluorescence polarization assay
propertyName: Ki (µM)
Answers are plain numbers, in µM.

Looking up `Cl.Cl.O=C(c1cc(F)cc(N2CCNCC2)c1)N1CCN(C(=O)c2ccc(O[C@H]3CCNC3)c(C3CCCCC3)c2)CC1` , I found its Ki recorded as 39
